System: Phakopsora pachyrhizi
Experiment: Asian Soybean Rust fungicidal activity (PHAKPA)
Conditions: Phakopsora pachyrhizi, in Glycine max, 72 h, read-out: PHAKPA 3DC % Control rating, soybean, high volume, 25 ppm, 3 Day Curative
Listed next: entries and their corresponding pest or weed control at 25 ppm.

{"columns": ["compound structure string", "pest or weed control at 25 ppm"],
 "data": [
  ["COc1ccnc(C(=O)N[C@@H](C)C(=O)O[C@@H](C)[C@H](Oc2ccc(F)cc2)c2ccccc2)c1OC(C)=O", "< 80%"],
  ["COc1cc(F)ccc1[C@@H](OC(=O)C1CC1)[C@H](C)OC(=O)[C@H](C)NC(=O)c1nccc(OC)c1OC(C)=O", "< 80%"],
  ["CCOc1cc(F)ccc1[C@@H](Oc1ccccc1)[C@H](C)OC(=O)[C@H](C)NC(=O)c1nccc(OC)c1OC(C)=O", "< 0%"],
  ["COc1cc(F)ccc1[C@@H](OCC1CC1)[C@H](C)OC(=O)[C@H](C)NC(=O)c1nccc(OC)c1OC(C)=O", "< 80%"]
]}
